B1: KAT8 regulatory NSL complex subunit 2, residues 28 to 91; numbered along this chain, Q9H9L4 (parent)
chain: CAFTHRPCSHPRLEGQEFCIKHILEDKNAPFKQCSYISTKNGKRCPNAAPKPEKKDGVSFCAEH

- Variants of: B1
- Experimental Details: abundance fitness (aPCA) (normalised: wild type 0, dead -1); higher = more abundant; growth selection in yeast, the domain comes from the species named
- Condition Set: Homo sapiens
Provide the recorded abundance fitness for the entries that follow.
Give bare numbers.

Illustrative cases are given below, each with its answer.
mutation_list=F31H value_measured=-0.261
mutation_list=N28K value_measured=-0.1
mutation_list=R6C value_measured=-0.032
mutation_list=P7W value_measured=-0.148
mutation_list=L13F value_measured=-0.324
mutation_list=G15W value_measured=-0.592

# return abundance fitness for each item in the list
1. C1S
2. I20A
3. Y36Q

1. -0.358
2. -0.048
3. -0.078

Answer for every listed entry: what is its abundance fitness? The entries follow.
1. E63S
2. C61Y
3. A2M

-0.093
-0.585
-0.014

For every item below, please supply its abundance fitness.
1. A62M
2. H22R

1. -0.103
2. -0.812

Batch of 8 variants: report abundance fitness for each.
1. T4F
2. C19W
3. V58Y
4. E25R
5. F3D
6. T39F
7. R12L
8. N47S

1. -0.181
2. -1.28
3. -0.046
4. -0.099
5. -0.255
6. -0.105
7. -0.27
8. -0.035

# map each variant to its abundance fitness
1. D56A
2. S35F
3. L13K

1: -0.111; 2: -0.012; 3: -0.24

Give abundance fitness for all variants that follow.
1. C34K
2. K43M
3. L13H
4. H5A
5. F18Y
6. K51Y

-0.484
-0.203
-0.215
-0.068
-0.11
-0.327

Hi! Can you tell me abundance fitness for each of these variants?
1. C45Y
2. L13Y
3. P46A
4. C61I

[-0.671, -0.277, -0.119, -0.499]

Quick batch: abundance fitness for everything below.
1. F3Q
2. E63Y
3. E14L
4. F18Q
5. P30D
6. A48N

[-0.28, -0.138, -0.12, -0.642, -0.155, -0.293]

meta.source: the Human Domainome abundance scans (Beltran et al. 2025)
